# Lookup of reported Minimum inhibitory concentration keyed by entry
# Tested on: clinical strains of S. aureus
# Test description: MIC, microdilution, clinical strains
# Type: cell-based
# Test context: Staphylococcus aureus strain 4, Muller Hinton broth-cation adjusted, 0.02% BSA, 0.2% acetic acid
Where a SMILES comes first, the peptide text is derived from it. [ ]: non-standard residue; d: D form.

{"Compound": "CC[C@@H](C)[C@@H](NC(=O)[C@@H](Cc1c[nH]c2ccccc12)NC(=O)[C@H](N)CCCCN)C(=O)N[C@@H](C(=O)N[C@H](Cc1c[nH]c2ccccc12)C(=O)N[C@H](CCCNC(=N)N)C(=O)N[C@H](Cc1c[nH]c2ccccc12)C(=O)N[C@H](CCCNC(=N)N)C(=O)N[C@H](Cc1ccccc1)C(=O)N[C@H](CCCCN)C(=O)N[C@H](CCCNC(=N)N)C(=O)O)C(C)C [Chain201D] (H-[dK][dW][dI][dV][dW][dR][dW][dR][dF][dK][dR]-OH)", "Minimum inhibitory concentration": 1}
{"Compound": "CC(C)C[C@@H](NC(=O)[C@@H](CCCCN)NC(=O)[C@@H](Cc1c[nH]c2ccccc12)NC(=O)[C@@H](CCCCN)NC(=O)[C@@H](C)NC(=O)[C@@H](Cc1c[nH]cn1)NC(=O)[C@@H](CC(C)C)NC(=O)[C@@H](CCCNC(=N)N)NC(=O)[C@@H](Cc1c[nH]c2ccccc12)NC(=O)[C@H](N)Cc1c[nH]c2ccccc12)C(=O)N[C@H](Cc1c[nH]c2ccccc12)C(=O)O [Chain109D] (H-[dW][dW][dR][dL][dH][dA][dK][dW][dK][dL][dW]-OH)", "Minimum inhibitory concentration": 2}
{"Compound": "CC(C)C[C@@H](NC(=O)[C@H](N)CCCCN)C(=O)N[C@H](CCCCN)C(=O)N[C@H](Cc1c[nH]c2ccccc12)C(=O)N[C@H](Cc1ccccc1)C(=O)N[C@H](Cc1c[nH]c2ccccc12)C(=O)N[C@H](CC(C)C)C(=O)N[C@H](Cc1ccccc1)C(=O)N[C@H](CCCCN)C(=O)N[C@H](CCCCN)C(=O)N[C@H](CCCNC(=N)N)C(=O)O [Chain311D] (H-[dK][dL][dK][dW][dF][dW][dL][dF][dK][dK][dR]-OH)", "Minimum inhibitory concentration": 1}
{"Compound": "CC(C)C[C@@H](NC(=O)[C@@H](Cc1c[nH]c2ccccc12)NC(=O)[C@@H](Cc1ccccc1)NC(=O)[C@@H](Cc1c[nH]c2ccccc12)NC(=O)[C@@H](CCCCN)NC(=O)[C@@H](CCCNC(=N)N)NC(=O)[C@H](N)Cc1c[nH]c2ccccc12)C(=O)N[C@H](Cc1ccccc1)C(=O)N[C@H](CCCCN)C(=O)N[C@H](CCCCN)C(=O)N[C@H](CCCNC(=N)N)C(=O)O [Chain309D] (H-[dW][dR][dK][dW][dF][dW][dL][dF][dK][dK][dR]-OH)", "Minimum inhibitory concentration": 8}
